biological target: CYP2E1 (Homo sapiens); construct: in the presence of human liver microsomes; test: Drug-substrate based CYP inhibition, 2E1; details: human liver microsomes
Sequence (P05181 whole entry): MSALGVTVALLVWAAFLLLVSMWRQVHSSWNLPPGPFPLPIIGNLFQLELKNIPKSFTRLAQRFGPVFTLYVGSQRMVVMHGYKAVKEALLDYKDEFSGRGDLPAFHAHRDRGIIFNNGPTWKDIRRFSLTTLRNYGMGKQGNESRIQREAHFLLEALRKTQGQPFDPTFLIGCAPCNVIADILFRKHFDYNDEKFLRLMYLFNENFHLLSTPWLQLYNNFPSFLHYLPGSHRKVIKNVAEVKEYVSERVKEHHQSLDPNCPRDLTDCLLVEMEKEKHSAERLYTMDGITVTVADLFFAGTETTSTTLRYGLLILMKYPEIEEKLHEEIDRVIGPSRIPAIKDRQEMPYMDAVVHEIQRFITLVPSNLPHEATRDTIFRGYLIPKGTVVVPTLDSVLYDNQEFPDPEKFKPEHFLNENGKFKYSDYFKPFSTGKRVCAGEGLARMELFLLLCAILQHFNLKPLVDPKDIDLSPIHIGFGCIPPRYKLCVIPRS

Compound: Cc1cc(NC(=O)CCc2nnc(-c3ccccc3)o2)c(C)cc1N [IVMT-Rx-4]
IC50: ~8 µM

----------
experiment: Pharmacokinetic studies, single dose IV, PO, SC, IP; type: in vivo, CD1 mice; conditions: CD1, mouse, plasma, 10 mg/kg; all non-intravenous routes
Quantity Name: Tmax

Smiles Text: Cc1cc(NC(=O)CCc2nnc(-c3ccccc3)o2)c(C)cc1N
Reported Result: ≤ 30 min

----------
experiment: Log D by shake flask (pH 7.4); format: physicochemical; details: pH 7.4, octanol/phosphate buffer

Smiles Text: Cc1cc(NC(=O)CCc2nnc(-c3ccccc3)o2)c(C)cc1N
logD at 2 h: 1.49
